Each item that follows carries a reported IC50.
Target: Protein farnesyltransferase (PFT) (Plasmodium falciparum, UniProt Q5EI73+Q5EI74)
Sequence (Q5EI73 whole entry): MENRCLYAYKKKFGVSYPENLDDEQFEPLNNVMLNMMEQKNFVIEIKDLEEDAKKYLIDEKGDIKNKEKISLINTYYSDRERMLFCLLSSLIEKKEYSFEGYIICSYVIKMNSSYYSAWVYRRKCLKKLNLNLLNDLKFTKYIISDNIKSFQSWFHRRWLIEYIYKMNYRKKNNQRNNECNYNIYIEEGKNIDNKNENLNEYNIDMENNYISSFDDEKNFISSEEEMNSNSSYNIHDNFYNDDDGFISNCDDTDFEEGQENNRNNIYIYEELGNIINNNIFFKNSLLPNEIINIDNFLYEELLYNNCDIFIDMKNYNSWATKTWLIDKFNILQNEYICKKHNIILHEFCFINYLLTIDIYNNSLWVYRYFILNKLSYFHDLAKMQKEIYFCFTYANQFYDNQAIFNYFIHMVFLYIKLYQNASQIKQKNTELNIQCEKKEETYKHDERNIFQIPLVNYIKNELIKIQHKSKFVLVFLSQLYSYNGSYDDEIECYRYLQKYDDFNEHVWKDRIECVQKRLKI
Sequence (Q5EI74 whole entry): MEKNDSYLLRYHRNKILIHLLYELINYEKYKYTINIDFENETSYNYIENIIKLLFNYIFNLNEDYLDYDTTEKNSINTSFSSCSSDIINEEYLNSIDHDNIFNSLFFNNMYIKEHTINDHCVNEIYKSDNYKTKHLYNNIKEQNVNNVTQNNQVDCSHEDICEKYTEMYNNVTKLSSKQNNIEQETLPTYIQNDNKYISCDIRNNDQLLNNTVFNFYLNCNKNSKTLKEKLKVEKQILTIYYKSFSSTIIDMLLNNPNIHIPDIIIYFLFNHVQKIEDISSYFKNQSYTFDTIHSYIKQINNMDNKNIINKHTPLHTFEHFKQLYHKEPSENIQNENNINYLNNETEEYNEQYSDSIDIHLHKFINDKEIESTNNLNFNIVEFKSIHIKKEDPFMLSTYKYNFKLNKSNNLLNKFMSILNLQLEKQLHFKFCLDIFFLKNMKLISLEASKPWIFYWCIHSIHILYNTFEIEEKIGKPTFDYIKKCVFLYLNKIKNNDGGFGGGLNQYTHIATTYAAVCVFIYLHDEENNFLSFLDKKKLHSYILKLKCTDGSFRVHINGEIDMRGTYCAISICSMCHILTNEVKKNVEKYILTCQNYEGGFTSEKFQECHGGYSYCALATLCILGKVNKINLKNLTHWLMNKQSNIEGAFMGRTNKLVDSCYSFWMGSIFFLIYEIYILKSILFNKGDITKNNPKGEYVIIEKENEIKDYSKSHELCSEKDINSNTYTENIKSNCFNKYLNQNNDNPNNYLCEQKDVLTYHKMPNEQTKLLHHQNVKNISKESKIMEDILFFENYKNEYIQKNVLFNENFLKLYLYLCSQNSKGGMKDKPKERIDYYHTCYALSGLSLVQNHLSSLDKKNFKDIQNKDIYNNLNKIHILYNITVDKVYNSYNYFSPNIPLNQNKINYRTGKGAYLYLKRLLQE
Assay: Inhibition of biotinylated lamin B peptide farnesylation by Plasmodium falciparum farnesyltransferase
Could you give the number and then its unit, please?

MOLECULE	IC50
Cn1cnc(S(=O)(=O)N(CC(=O)NC(C)(C)C)C2Cc3cc(C#N)ccc3N(Cc3cncn3C)C2)c1 (stereo unspecified)	1.2 nM
Cn1cncc1CN1CC(N(Cc2cc3nsnc3cc2Cl)S(=O)(=O)c2ccccn2)Cc2cc(C#N)ccc21 (stereo unspecified)	55 nM
Cn1cncc1CN1CC(N(CC(=O)NC(C)(C)C)S(=O)(=O)c2ccccn2)Cc2cc(C#N)ccc21 (stereo unspecified)	1.4 nM

Form field: reported IC50 of Cn1cncc1CN1CC(N(CC(=O)NC(C)(C)C)S(=O)(=O)c2ccncc2)Cc2cc(C#N)ccc21 (stereo unspecified)
1000 nM

Form field: reported IC50 of Cn1cncc1CN1CC(N(CC(=O)NC(C)(C)C)S(=O)(=O)c2cccnc2)Cc2cc(C#N)ccc21 (stereo unspecified)
25 nM

Form field: reported IC50 of Cn1cnc(S(=O)(=O)N(Cc2ccccc2)C2Cc3cc(C#N)ccc3N(Cc3cncn3C)C2)c1 (stereo unspecified)
0.6 nM

The reported numbers originate from ChEMBL document CHEMBL1141933.
